Reference source: the kinase profiling compilation of Christmann-Franck et al. (2016)

molecular target: HIPK2 (human); assay: radiometric filter-binding kinase assay; conditions: compound 10.0 µM

# molecule, residual activity (%)
records = [
    ("CN1C(=O)[C@@H](Cc2c[nH]c3ccccc23)NC1=S", 88),
    ("O=C(Nc1ccccc1-c1cn2c(CN3CCNCC3)csc2n1)c1cnc2ccccc2n1", 38),
    ("O=C(N[C@@H](COc1ccc2[nH]c(=O)[nH]c2c1)c1ccccc1)c1cccn(Cc2ccc(F)c(F)c2)c1=O", 90),
    ("c1ccc2c(-c3cnn4cc(-c5ccc(N6CCNCC6)cc5)cnc34)ccnc2c1", 56),
    ("COc1ccc2c(c1)c1c3c(c4c5ccccc5n(C)c4c1n2CC(O)CN(C)C)C(=O)NC3=O (stereo not drawn)", 24),
    ("N#Cc1c(C2CCNCC2)cc(-c2c(O)cccc2OCC2CC2)nc1N", 59),
    ("COc1cc2ncn(-c3cc(OCc4ccccc4S(C)(=O)=O)c(C#N)s3)c2cc1OC", 32),
    ("CC1=C(CO)C(=O)O[C@@H]([C@@H](C)[C@H]2CC[C@H]3[C@@H]4C[C@H]5O[C@]56[C@@H](O)C=CC(=O)[C@]6(C)C4CC[C@]23C)C1 (stereo partly drawn)", 60),
    ("CCNc1nc(Nc2cc(F)c(C(=O)N3CCOCC3)cc2OC)ncc1C(F)(F)F", 65),
    ("FC(F)(F)c1ccc(-c2ccc(Oc3cncc4sc(-c5nn[nH]n5)cc34)cc2)cc1", 11),
    ("Cc1cccc(Nc2nn(C)c3ncnc(N)c23)c1", 125),
    ("O=C1Nc2nc(-c3c(O)cccc3OCC3CC3)cc(C3CCCNC3)c2CO1 (stereo not drawn)", 34),
    ("O=C(NOC[C@H](O)CO)c1ccc(F)c(F)c1Nc1ccc(I)cc1Cl", 104),
    ("Nc1cccc2c1CN(C1CCC(=O)NC1=O)C2=O (stereo not drawn)", 103),
    ("NC(=O)c1cc(-c2ccnc(NC3CCCCC3)c2)nc(N2CCNCC2)c1", 87),
    ("O=C(O)c1ccc(-c2c[nH]c3ncc(-c4ccccc4)cc23)cc1C1CCCC1", 15),
    ("CCCCCc1ccc(/C=C/[C@H](O)[C@@H](CO)NC)cc1", 106),
    ("O=S(=O)(c1ccc(F)c2nonc12)N1CCN(c2ncc(C(F)(F)F)cc2Cl)CC1", 97),
    ("NC1(c2ccc(-c3nc4ccn5c(=O)[nH]nc5c4cc3-c3ccccc3)cc2)CCC1", 80),
    ("Cc1ccc2c(c1)C(=O)[C@@]1(O)CCN(c3ccccc3)C1=N2", 98),
    ("C[C@H]1CCCC(=O)CCC/C=C/c2cc(O)cc(O)c2C(=O)O1", 63),
    ("COc1cc(C(=O)N2CCOCC2)c(F)cc1Nc1ncc(C(F)(F)F)c(NC2CC2)n1", 28),
    ("COC(=O)/C=C/C(=O)OC", 98),
    ("CCn1c(-c2nonc2N)nc2cncc(CNC3CCNCC3)c21", 43),
    ("NC(=O)c1cc2c(-c3cccc(-c4ccccc4)c3)cnc(N)c2s1", 9),
    ("CNc1nc(-c2ccc3c(N)n[nH]c3c2)cc(N2C[C@@H](C(=O)NC3CCCCC3)CC[C@H]2C)n1", 113),
    ("O=C(NOCC(O)CO)c1ccc(F)c(F)c1Nc1ccc(I)cc1Cl (stereo not drawn)", 106),
    ("O=C(O)c1cc(N=Nc2ccc(S(=O)(=O)Nc3ccccn3)cc2)ccc1O", 94),
    ("CCc1cncnc1N1CCN(Cc2nc3cc(C(F)(F)F)ccc3[nH]2)CC1", 88),
    ("NC(=O)c1ccc(-c2ccc(Oc3cncc4sc(-c5nn[nH]n5)cc34)cc2)cc1", 10),
    ("CC(C)(C#N)c1ccc(N2C(=O)OCc3cnc4ccc(-c5cnc6ccccc6c5)cc4c32)cc1", 114),
    ("Cn1nc(Nc2ccc(F)cc2)c2c(N)ncnc21", 105),
    ("NS(=O)(=O)OC[C@@H]1C[C@@H](n2ccc3c(N[C@H]4CCc5ccccc54)ncnc32)C[C@@H]1O", 97),
]

----------
biological target: MAP3K11 (human) (UniProt Q16584); experiment: radiometric filter-binding kinase assay; details: compound 10.0 µM
Sequence (Q16584 whole entry, looked up): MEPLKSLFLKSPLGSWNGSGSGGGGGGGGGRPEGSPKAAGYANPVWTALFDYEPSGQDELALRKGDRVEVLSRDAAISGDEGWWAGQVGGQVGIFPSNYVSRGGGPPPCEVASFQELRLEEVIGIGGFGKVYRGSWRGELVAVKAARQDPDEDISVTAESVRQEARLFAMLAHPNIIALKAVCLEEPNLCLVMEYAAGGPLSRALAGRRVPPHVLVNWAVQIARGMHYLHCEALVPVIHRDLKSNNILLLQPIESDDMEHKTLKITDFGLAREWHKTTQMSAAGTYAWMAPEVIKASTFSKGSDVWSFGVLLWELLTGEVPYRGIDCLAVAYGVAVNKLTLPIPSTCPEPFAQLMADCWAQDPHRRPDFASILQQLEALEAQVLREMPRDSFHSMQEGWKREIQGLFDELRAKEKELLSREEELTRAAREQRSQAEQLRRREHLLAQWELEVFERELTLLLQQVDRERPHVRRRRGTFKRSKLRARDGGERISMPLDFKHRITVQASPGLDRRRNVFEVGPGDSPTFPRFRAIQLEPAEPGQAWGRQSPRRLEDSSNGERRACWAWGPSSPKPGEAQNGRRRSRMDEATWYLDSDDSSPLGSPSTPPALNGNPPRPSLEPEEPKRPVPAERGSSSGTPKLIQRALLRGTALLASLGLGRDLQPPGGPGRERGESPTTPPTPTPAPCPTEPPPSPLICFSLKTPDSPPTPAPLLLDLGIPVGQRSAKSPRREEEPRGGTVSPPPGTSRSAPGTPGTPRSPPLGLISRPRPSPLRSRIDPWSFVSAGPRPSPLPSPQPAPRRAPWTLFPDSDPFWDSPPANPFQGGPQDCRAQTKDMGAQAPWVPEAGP
Threshold-based label: residual activity under 90% gives Met, residual activity not under 90% gives Not met.

# smilesRepresentation, answerLabel
data = [
    ("CCOC(=O)c1ccc(N2NC(=O)/C(=C/c3ccc([N+](=O)[O-])o3)C2=O)cc1", "Not met"),
    ("C=CC(=O)N1CCC[C@@H](n2nc(-c3ccc(Oc4ccccc4)cc3)c3c(N)ncnc32)C1", "Met"),
    ("COC(=O)/C=C/C(=O)OC", "Not met"),
    ("N#Cc1c(C2CCNCC2)cc(-c2c(O)cccc2OCC2CC2)nc1N", "Met"),
    ("CC(C)(C#N)c1ccc(N2C(=O)OCc3cnc4ccc(-c5cnc6ccccc6c5)cc4c32)cc1", "Met"),
    ("Cc1ccc(=O)n(-c2ccccc2)c1", "Not met"),
    ("O=c1c(O)c(-c2ccc(O)c(O)c2)oc2cc(O)c(O)c(O)c12", "Met"),
    ("COc1cc(C(=O)N2CCOCC2)c(F)cc1Nc1ncc(C(F)(F)F)c(NC2CC2)n1", "Met"),
    ("CN1C(=O)[C@@H](Cc2c[nH]c3ccccc23)NC1=S", "Not met"),
]

----------
The molecules listed here are annotated with their residual activity.
molecular target: PIM3 (human) (UniProt Q86V86); experiment: radiometric filter-binding kinase assay; conditions: compound 1.0 µM

# molecule, residual activity [%]
records = [
    ("O=C(O)c1cc(N=Nc2ccc(S(=O)(=O)Nc3ccccn3)cc2)ccc1O", 63),
    ("c1ccc2c(-c3cnn4cc(-c5ccc(N6CCNCC6)cc5)cnc34)ccnc2c1", 103),
    ("O=C(Nc1ccccc1-c1cn2c(CN3CCNCC3)csc2n1)c1cnc2ccccc2n1", 55),
    ("CCCCCc1ccc(/C=C/[C@H](O)[C@@H](CO)NC)cc1", 121),
    ("NC(=O)c1ccc(-c2ccc(Oc3cncc4sc(-c5nn[nH]n5)cc34)cc2)cc1", 79),
    ("Cc1nc(-c2ccc(OCC(C)C)c(C#N)c2)sc1C(=O)O", 66),
    ("Cc1cccc(-c2nn(C(=S)Nc3ccccc3)cc2-c2ccnc3ccccc23)n1", 117),
    ("O=c1c(O)c(-c2ccc(O)c(O)c2)oc2cc(O)c(O)c(O)c12", 34),
    ("COc1ccc2c(c1)c1c3c(c4c5ccccc5n(C)c4c1n2CC(O)CN(C)C)C(=O)NC3=O (centres undefined)", 1),
    ("CC(C)(C#N)c1ccc(N2C(=O)OCc3cnc4ccc(-c5cnc6ccccc6c5)cc4c32)cc1", 67),
    ("CCn1c(-c2nonc2N)nc2cncc(CNC3CCNCC3)c21", 36),
    ("O=C(NOCC(O)CO)c1ccc(F)c(F)c1Nc1ccc(I)cc1Cl (centres undefined)", 94),
    ("N#Cc1c(C2CCNCC2)cc(-c2c(O)cccc2OCC2CC2)nc1N", 56),
    ("Cn1c(=O)c2c(ncn2C)n(C)c1=O", 97),
    ("O=C1Nc2nc(-c3c(O)cccc3OCC3CC3)cc(C3CCCNC3)c2CO1 (centres undefined)", 44),
    ("Cc1ccc(-c2ccc3c(ccc4sc5c(c43)NC[C@@H](C)NC5=O)n2)cn1", 18),
    ("Oc1ccc(/C=C/c2cc(O)cc(O)c2)cc1", 48),
    ("Cc1ccc(Sc2cnc(Nc3cccc(Br)n3)s2)cc1C(=O)N1CCN(C(=O)CN)CC1", 72),
    ("O=C(O)c1ccc(-c2c[nH]c3ncc(-c4ccccc4)cc23)cc1C1CCCC1", 86),
    ("Cc1cccc(Nc2nn(C)c3ncnc(N)c23)c1", 120),
    ("O=C1NC(=S)N[C@@H]1Cc1c[nH]c2ccccc12", 90),
    ("COc1cc(O)c2c(c1)/C=C/C[C@H](O)[C@H](O)C(=O)/C=C\\C[C@H](C)OC2=O", 80),
    ("COc1cc(O)c2c(c1)[C@H]1OC1C[C@H](O)[C@H](O)C(=O)/C=C\\C[C@H](C)OC2=O (some centres undefined)", 99),
    ("C[C@H]1CCCC(=O)CCC/C=C/c2cc(O)cc(O)c2C(=O)O1", 49),
    ("CN1C(=O)[C@@H](Cc2c[nH]c3ccccc23)NC1=S", 88),
    ("NC(=O)c1c(NC(=O)C2CC2)sc2c1CCCC2", 111),
    ("COc1ccc(N(C(=O)Nc2c(C)cccc2C)c2cc(Nc3ccc(N4CCN(C)CC4)cc3)ncn2)c(OC)c1", 103),
    ("C=C1C(=O)OC2C1CC/C(C)=C/CCC1(C)OC21 (centres undefined)", 119),
    ("O=C(NOC[C@H](O)CO)c1ccc(F)c(F)c1Nc1ccc(I)cc1Cl", 78),
    ("NC(=O)Nc1ccc2c(c1)/C(=C/c1cc(-c3cccnc3)c[nH]1)C(=O)N2", 9),
    ("CNc1nc(-c2ccc3c(N)n[nH]c3c2)cc(N2C[C@@H](C(=O)NC3CCCCC3)CC[C@H]2C)n1", 94),
    ("Cc1cc(SCc2sc(-c3ccc(C(F)(F)F)cc3)nc2C)ccc1OCC(=O)O", 86),
    ("C=CC(=O)N1CCC[C@@H](n2nc(-c3ccc(Oc4ccccc4)cc3)c3c(N)ncnc32)C1", 96),
    ("CCc1cncnc1N1CCN(Cc2nc3cc(C(F)(F)F)ccc3[nH]2)CC1", 88),
]
